Exercise: state measured solubility at 30 min for each of the compounds provided.
# test.protocol: Maximum solubility of ITZA and azole analogues in solvents (HPLC)
# Format: physicochemical
# experimental.parameters: solvent H3D (no benzyl alcohol), organic solvent or mixture, thermodynamic from solid, solvent H3D (no benzyl alcohol), single determination; read-out: Azole solubility, [Drug] mg/mL
The answer consists of two parts: a number and, after it, its unit.

For reference, reported solubility at 30 min for CC[C@@H]([C@H](C)O)n1ncn(-c2ccc(N3CCN(c4ccc(OC[C@@H]5CO[C@@](Cn6cncn6)(c6ccc(F)cc6F)C5)cc4)CC3)cc2)c1=O [POSA, posaconazole] stands at 33.8 mg/mL

Value of solubility at 30 min reported for the compound CCC(C)n1ncn(-c2ccc(N3CCN(c4ccc(OCC5COC(Cn6cncn6)(c6ccc(Cl)cc6Cl)O5)cc4)CC3)cc2)c1=O (centres unmarked) [ITZA, itraconazole] is 19.1 mg/mL
